Test system: 855422-203-R-J1-PDC complex spheroid viability;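 also: drug exposure lasted 7 days starting on day 3 after seeding; luminescence viability as percent of DMSO vehicle wells = 100%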
protocol details: Anticancer human tumor 855422-203-R-J1-PDC patient-derived bladder carcinoma cell line growth inhibition
condition label: second compound 1 µM; first compound 1 µM; hits give low values
// values below are reported viability, T/C
Just the number please, in %, no unit attached.

Worked examples follow.
CC1COCCN1c1cc(-c2ccnn2C)c2ccnc(-c3ccn[nH]3)c2n1 (centres undefined) + NC1CC1c1ccc(-c2cccc(O)c2)cc1 = 33.9
CC1(C)CCC(CN2CCN(c3ccc(C(=O)NS(=O)(=O)c4ccc(NCC5CCOCC5)c([N+](=O)[O-])c4)c(Oc4cnc5[nH]ccc5c4)c3)CC2)=C(c2ccc(Cl)cc2)C1 + NC1CC1c1ccc(-c2cccc(O)c2)cc1 = 91.5
COc1cc(Nc2ncc3c(n2)-c2ccc(Cl)cc2C(c2c(F)cccc2OC)=NC3)ccc1C(=O)O + NC1CCC(NC2CC2c2ccccc2)CC1 = 57

Let us examine a further case.
For O=C(c1cc(Cc2n[nH]c(=O)c3ccccc23)ccc1F)N1CCN(C(=O)C2CC2)CC1 + NC1CC1c1ccc(-c2cccc(O)c2)cc1 , what is its reported viability, T/C?
95.5

Value source: PubChem BioAssay AID1918943
